Quick reference: melting point of the listed items.

INSERT INTO assay_data (molecule, recorded_value) VALUES
  ('Cc1ccc(-c2csc(=O)n2CC(=O)O)cc1', '128 to 130 °C'),
  ('O=S1(=O)CCCN1c1cccc(Cl)c1', '85 to 87 °C');

Item: CCOC(=O)c1c[nH]n(C)c1=N | melting point: 95 to 97 °C

For record CCc1nc(NC(=O)CCl)sc1C the listed melting point is 124 to 126 °C

Item: O=C(O)c1c[nH]cc1-c1ccccc1 | melting point: 212 to 214 °C

---

Listed compounds paired with reported melting point

Some compounds with known melting point results, for comparison:
INSERT INTO measurements (compound, measurement_label, recorded_value) VALUES
  ('O=C(O)c1cc2ccccn2c1', 'melting point', '179 to 181 °C'),
  ('O=C1OC(C(O)CO)C(O)=C1O (centres undefined)', 'melting point', '192 to 196 °C'),
  ('O=C(O)c1ccc(F)c(S(=O)(=O)N2CCCC2)c1', 'melting point', '223 to 225 °C'),
  ('CCN(CC)S(=O)(=O)c1ccc(C(C)=O)cc1', 'melting point', '81 to 83 °C'),
  ('O=C(O)C1(c2ccc(F)cc2)CCOCC1', 'melting point', '156 to 158 °C'),
  ('Cc1cc(C)c(-c2csc(N)n2)cc1C', 'melting point', '252 to 254 °C'),
  ('CC(C)(C)c1nn(Cc2ccccc2)cc1C=O', 'melting point', '64 to 66 °C'),
  ('Nc1ccc2c(c1)nc1n2CCCCC1', 'melting point', '180 to 182 °C');

Noted for Nc1nnc(Cl)s1 : its melting point reads 179 to 181 °C

Short answer for CC(C)C(NCC(F)(F)F)C(=O)O (centres undefined) : melting point was 128 to 130 °C

Memo: O=C1CC(c2ccccc2)CN1 (centres undefined) , reported melting point: 70 to 72 °C

Entry COc1ccc(S(=O)(=O)Nc2nccs2)cc1 ; melting point = 172 to 174 °C

Short answer for Nc1cc(-c2ccccc2)nc(N)n1 : melting point was 153 to 155 °C

According to the records, this compound COc1ccc(C(C)=O)c(OCc2ccccc2)c1 displays melting point of 59 to 61 °C

melting point in this record for Cc1cc(C=O)c(C)n1-c1ccc(F)cc1F : 133 to 135 °C

Summary for this compound, O=C(O)CNC(=O)CC12CC3CC(CC(C3)C1)C2 : melting point is 165 to 167 °C

Looking up Nc1nc(-c2ccc(OC(F)F)cc2OC(F)F)cs1 , I found its melting point recorded as 86 to 88 °C

---

measurement-label: melting point

Solved entries:
INSERT INTO results (compound, recorded_value) VALUES
  ('Cc1cc(C)c(-c2cc(N)[nH]n2)cc1C', '145 to 147 °C'),
  ('O=C(O)c1ccc(Br)cc1C(F)(F)F', '116 to 117 °C'),
  ('Nc1ncn(Cc2ccc(Br)cc2)n1', '169 to 171 °C');

Short answer for CCCCC1CCC(C(=O)CC#N)CC1 (stereo not given) : melting point was 52 to 54 °C

Reported melting point ( CCOc1ccc(C2CCCN2)cc1 (stereo not given) ) = < 17 °C

Measured melting point of O=C(O)CN(C(=O)c1ccc(Br)o1)c1ccccc1 : 129 to 131 °C

Record O=C(O)c1ncoc1-c1ccco1 , field melting point: 171 to 173 °C
